molecular target: anti-H3K9me3 antibody ab8898; test: peptide microarray binding signal (635 nm), min-max normalized on array (fraction of array maximum); higher = stronger binding; conditions: peptide region: Unmod H4 variant; binder concentration: 1:10,000 dilution
Record form. Attribute: peptide microarray binding signal. Fill in for each entry.
Give bare numbers.

Please go through the list and note peptide microarray binding signal for each binder.
1. ISGLIYEETRGVL [Unmod H4 variant I S G L I Y E E T R G V L]
2. YEETRGVLKVFLE [Unmod H4 variant Y E E T R G V L K V F L E]
3. KRHRKVLRDNIQG [Unmod H4 variant K R H R K V L R D N I Q G]
4. TYTEHAKRKTVTA [Unmod H4 variant T Y T E H A K R K T V T A]
5. AKRKTVTAMDVVY [Unmod H4 variant A K R K T V T A M D V V Y]
6. IRDAVTYTEHAKR [Unmod H4 variant I R D A V T Y T E H A K R]

1. 0.000807
2. 0.000807
3. 0.00104
4. 0.00202
5. 0.00104
6. 0.00577

Dear colleague, could you send me peptide microarray binding signal for each of the items below? Thanks.
1. GVLKVFLENVIRD [Unmod H4 variant G V L K V F L E N V I R D]
2. GGKGLGKGGAKRH [Unmod H4 variant G G K G L G K G G A K R H]

1. 0.00098
2. 0.00075

Batch request: peptide microarray binding signal for each of the following binders.
1. FLENVIRDAVTYT [Unmod H4 variant F L E N V I R D A V T Y T]
2. SGRGKGGKGLGKG [Unmod H4 variant S G R G K G G K G L G K G]
3. IQGITKPAIRRLA [Unmod H4 variant I Q G I T K P A I R R L A]
4. VLRDNIQGITKPA [Unmod H4 variant V L R D N I Q G I T K P A]

1. 0.0034
2. 0.000692
3. 0.00957
4. 0.00323

Sourced from the supplement of paper PMC4022240
